- System: CX-1 Human Colon Carcinoma
- PROCEDURE_SUMMARY: Clonogenic dye screening assay, CX-1 cells (IC50)
- Assay type: cell-based
- TEST_CONDITIONS: Homo sapiens, CX-1, 3 hrs treatment, colonies after 7-10 days; unit from method; read-out: CX (IC50 in the CX-1 cell line)
- Experimental: CX-1 is a cancerous human colon adenocarcinoma cell line. CV-1 is a non-cancerous control, which is a kidney epithelial cell line from an African green monkey. IC50 is the dye concentration at which 50% of the cells are killed. […] The screening procedure used a response curve that was determined from eight dye concentrations. […] Compounds are screened via an in vitro assay. […] IC50's are determined and drugs evaluated based on their selectivity and toxicity. […]
ATTRIBUTE_MEASURED: IC50 (µg/mL)

[[record]]
compound = "CCN1/C(=C/C=C/c2sc3cc4c(cc3[n+]2CC)OCO4)Oc2ccccc21"
reading = 0.3


(1) CC[n+]1c(/C=C/C=C2/c3c(C)ccc(C)c3C(C)(Cc3ccccc3)N2C)sc2ccccc21 (stereo not drawn)
(2) CCN1C(=O)/C(=C\C=C2/Oc3ccccc3N2CC)S/C1=N\c1sc2ccccc2[n+]1CC
Sorting by IC50 in descending order, would 1 or 2 appear first? Let me know the label of the one you choose.
2

* * *

CV/CX: recorded values
- Test system: CX-1 Human Colon Carcinoma
- PROCEDURE_SUMMARY: Clonogenic dye screening assay, CX-1 cells (IC50)
- Assay type: cell-based
- TEST_CONDITIONS: Table XVI; selectivity ratio of IC50 values
// return a plain number; no unit text

Some compounds with known CV/CX results, for comparison:
[[record]]
compound = "CC[n+]1c(/C=C/C=C2C=CC=CN2C)sc2ccccc21 [Dye 2-pyridine]"
attribute_measured = "CV/CX"
reading = 50.0

[[record]]
compound = "CCN1C(=CC=Cc2sc3ccccc3[n+]2CC)Sc2cc3ccccc3cc21 [naphtho/2,3/thiazole]"
attribute_measured = "CV/CX"
reading = 57.0

[[record]]
compound = "CC[n+]1c(/C=C/C=C2/c3c(C)ccc(C)c3C(C)(Cc3ccccc3)N2C)sc2ccccc21 [Dye D-132]"
attribute_measured = "CV/CX"
reading = 428.6

[[record]]
compound = "CCN1C=C(c2ccccc2)O/C1=C\\C=C\\c1sc2ccccc2[n+]1CC [Dye D-123]"
attribute_measured = "CV/CX"
reading = 80.0

[[record]]
compound = "CCN1/C(=C/C=C/c2c3ccccc3c3ccccc3[n+]2C)Sc2ccccc21 [Dye D-129]"
attribute_measured = "CV/CX"
reading = 87.5


Lab note: next compound to report on.
Notebook: CCN1/C(=C/C=C/c2sc3ccccc3[n+]2CC)Oc2ccccc21 [Dye D-104] , CV/CX read as 200.0

* * *

- Test system: CX-1 Human Colon Carcinoma
- PROCEDURE_SUMMARY: Clonogenic dye screening assay, CX-1 cells (IC50)
- Type: cell-based
- TEST_CONDITIONS: Homo sapiens, CX-1, 3 hrs treatment, colonies after 7-10 days; unit from method; read-out: CX (IC50 in the CX-1 cell line)
- Description: CX-1 is a cancerous human colon adenocarcinoma cell line. CV-1 is a non-cancerous control, which is a kidney epithelial cell line from an African green monkey. IC50 is the dye concentration at which 50% of the cells are killed. […] The screening procedure used a response curve that was determined from eight dye concentrations. […] Compounds are screened via an in vitro assay. […] IC50's are determined and drugs evaluated based on their selectivity and toxicity. […]
ATTRIBUTE_MEASURED: IC50 (µg/mL)

[[record]]
smiles_representation = "CCN1/C(=C/C=N/c2sc3ccccc3[n+]2CC)Sc2ccccc21"
unit_descriptor = "µg/mL"
reading = 0.09


(A) CCN1C=C(c2ccccc2)O/C1=C\C=C\c1sc2ccccc2[n+]1CC
(B) CC[n+]1c(/C=C/C(C(=O)c2ccccc2)=P(c2ccccc2)(c2ccccc2)c2ccccc2)sc2ccccc21
(C) C(=C\c1cc[n+]2c3c(cccc13)Sc1ccccc1-2)/C=c1\ccn2c3ccccc3sc3cccc1c3-2
(D) CCN1/C(=c2\s/c(=c3\s/c(=C/c4sc5ccccc5[n+]4CC)n(CC)c3=O)n(CC)c2=O)Sc2ccccc21
Sort entries by IC50 from minimum to maximum value. // rank by listing labels in the order requested
A, D, B, C

* * *

# IC50 per record follows
- Test system: CV-1 Normal Monkey Kidney Epithelial
- PROCEDURE_SUMMARY: Clonogenic dye screening assay, CV-1 cells (IC50)
- Format: cell-based, African green monkey
- TEST_CONDITIONS: Primates, CV-1, 3 hrs treatment, colonies after 7-10 days; unit from method; read-out: CV (IC50 in the CV-1 cell line)
- Procedure: CX-1 is a cancerous human colon adenocarcinoma cell line. CV-1 is a non-cancerous control, which is a kidney epithelial cell line from an African green monkey. IC50 is the dye concentration at which 50% of the cells are killed. […] The screening procedure used a response curve that was determined from eight dye concentrations. […] Compounds are screened via an in vitro assay. […] IC50's are determined and drugs evaluated based on their selectivity and toxicity. […]
Quick reminder: number only, in mg/L, skip the unit.

Some molecules with recorded IC50:
[[record]]
molecule = "CCN1/C(=C/C=C/c2sc3cc4ccccc4nc3[n+]2CC)Sc2ccc3ccccc3c21"
study_system = "CV-1 Normal Monkey Kidney Epithelial"
unit_descriptor = "mg/L"
reading = 3

[[record]]
molecule = "CCN1/C(=C/C=c2\\s/c(=C\\c3sc4ccccc4[n+]3CC)n(CCC(=O)O)c2=O)Sc2ccccc21"
study_system = "CV-1 Normal Monkey Kidney Epithelial"
unit_descriptor = "mg/L"
reading = 10

[[record]]
molecule = "CN1/C(=C/C=C/c2sc3ccccc3[n+]2C)Sc2ccccc21"
study_system = "CV-1 Normal Monkey Kidney Epithelial"
unit_descriptor = "mg/L"
reading = 0.5

[[record]]
molecule = "CCN1C(=CC=Cc2sc3cc4ccccc4nc3[n+]2CC)Sc2cc3ccccc3nc21"
study_system = "CV-1 Normal Monkey Kidney Epithelial"
unit_descriptor = "mg/L"
reading = 3

[[record]]
molecule = "CC[n+]1c(/C=C/C=C2/c3c(C)ccc(C)c3C(C)(Cc3ccccc3)N2C)sc2ccc3ccccc3c21 (centres unmarked)"
study_system = "CV-1 Normal Monkey Kidney Epithelial"
unit_descriptor = "mg/L"
reading = 3

[[record]]
molecule = "CCN1/C(=C/C=C/c2sc3ccccc3[n+]2CC)Oc2ccccc21"
study_system = "CV-1 Normal Monkey Kidney Epithelial"
unit_descriptor = "mg/L"
reading = 1


In plain terms, CC[n+]1c(/C=C/C=C2\SCCCN2C)sc2ccccc21 has a documented IC50 of 3

Value of IC50 reported for the molecule CC[n+]1c(/C=C/C=C2\SC=C(C)N2C)oc2ccccc21 is 5

Consider CCC(/C=C1\Sc2ccc(Cl)cc2N1C)=C\c1oc2ccc(-c3ccccc3)cc2[n+]1C . Its measured IC50 is 8
